# Test system: Streptococcus pneumoniae
# method summary: Bactericidal activity against erythromycin-susceptible Streptococcus pneumoniae ATCC49619 pretreated followed by subculture in absence of compound measured after 24 hrs
# Assay type: functional
Under this convention, Criterion met denotes MBC strictly below 0.1 µg/mL and Criterion not met denotes MBC at or above 0.1 µg/mL.

• CC[C@H]1OC(=O)[C@@](C)(F)C(=O)[C@H](C)[C@@H](O[C@@H]2O[C@H](C)C[C@H](N(C)C)[C@H]2O)[C@](C)(OC)C[C@@H](C)/C(=N\OC/C=C/c2cncc(C(N)=O)c2)[C@H](C)[C@H]2OC(=O)O[C@@]21C = Criterion met
• CC[C@H]1OC(=O)[C@@](C)(F)C(=O)[C@H](C)[C@@H](O[C@@H]2O[C@H](C)C[C@H](N(C)C)[C@H]2O)[C@](C)(OC)C[C@@H](C)/C(=N\OC/C=C/c2ccc3[nH]cc(C(=O)O)c(=O)c3c2)[C@H](C)[C@H]2OC(=O)O[C@@]21C = Criterion not met
• CC[C@H]1OC(=O)[C@@](C)(F)C(=O)[C@H](C)[C@@H](O[C@@H]2O[C@H](C)C[C@H](N(C)C)[C@H]2O)[C@](C)(OC)C[C@@H](C)/C(=N\OC/C=C/c2cncc(O)c2)[C@H](C)[C@H]2OC(=O)O[C@@]21C = Criterion not met
• CC[C@H]1OC(=O)[C@@](C)(F)C(=O)[C@H](C)[C@@H](O[C@@H]2O[C@H](C)C[C@H](N(C)C)[C@H]2O)[C@](C)(OC/C=C/c2ccc3[nH]ccc(=O)c3c2)C[C@@H](C)/C(=N\OC)[C@H](C)[C@H]2OC(=O)O[C@@]21C = Criterion met
• CC[C@H]1OC(=O)[C@@](C)(F)C(=O)[C@H](C)[C@@H](O[C@@H]2O[C@H](C)C[C@H](N(C)C)[C@H]2O)[C@](C)(OC)C[C@@H](C)/C(=N\OCC#Cc2ccc(N)nc2)[C@H](C)[C@H]2OC(=O)O[C@@]21C = Criterion not met
• CC[C@H]1OC(=O)[C@@](C)(F)C(=O)[C@H](C)[C@@H](O[C@@H]2O[C@H](C)C[C@H](N(C)C)[C@H]2O)[C@](C)(OC)C[C@@H](C)/C(=N\OCC#Cc2cncc(N)c2)[C@H](C)[C@H]2OC(=O)O[C@@]21C = Criterion not met
• CC[C@H]1OC(=O)[C@@](C)(F)C(=O)[C@H](C)[C@@H](O[C@@H]2O[C@H](C)C[C@H](N(C)C)[C@H]2O)[C@](C)(OC)C[C@@H](C)/C(=N\OCC#Cc2ccc([N+](=O)[O-])nc2)[C@H](C)[C@H]2OC(=O)O[C@@]21C = Criterion not met
• CC[C@H]1OC(=O)[C@@](C)(F)C(=O)[C@H](C)[C@@H](O[C@@H]2O[C@H](C)C[C@H](N(C)C)[C@H]2O)[C@](C)(OC/C=C/c2cncc(C(N)=O)c2)C[C@@H](C)/C(=N\OC)[C@H](C)[C@H]2OC(=O)O[C@@]21C = Criterion not met
• CC[C@H]1OC(=O)[C@@](C)(F)C(=O)[C@H](C)[C@@H](O[C@@H]2O[C@H](C)C[C@H](N(C)C)[C@H]2O)[C@](C)(OC)C[C@@H](C)/C(=N\OCC#Cc2ccc3c(c2)c(=O)c(C(=O)NC)cn3C2CC2)[C@H](C)[C@H]2OC(=O)O[C@@]21C = Criterion met
• CC[C@H]1OC(=O)[C@@](C)(F)C(=O)[C@H](C)[C@@H](O[C@@H]2O[C@H](C)C[C@H](N(C)C)[C@H]2O)[C@](C)(OC/C=C/c2ccc3c(c2)c(=O)c(C(N)=O)cn3C2CC2)C[C@@H](C)/C(=N\OC)[C@H](C)[C@H]2OC(=O)O[C@@]21C = Criterion met
• CC[C@H]1OC(=O)[C@H](C)[C@@H](O[C@H]2C[C@@](C)(OC)[C@@H](O)[C@H](C)O2)[C@H](C)[C@@H](O[C@@H]2O[C@H](C)C[C@H](N(C)C)[C@H]2O)[C@](C)(O)C[C@@H](C)CN(C)[C@H](C)[C@@H](O)[C@]1(C)O [AZITHROMYCIN] = Criterion not met
• CC[C@H]1OC(=O)[C@@](C)(F)C(=O)[C@H](C)[C@@H](O[C@@H]2O[C@H](C)C[C@H](N(C)C)[C@H]2O)[C@](C)(OC)C[C@@H](C)/C(=N\OCC#Cc2ccc3c(c2)c(=O)c(C(N)=O)cn3C2CC2)[C@H](C)[C@H]2OC(=O)O[C@@]21C = Criterion met
• CC[C@H]1OC(=O)[C@@](C)(F)C(=O)[C@H](C)[C@@H](O[C@@H]2O[C@H](C)C[C@H](N(C)C)[C@H]2O)[C@](C)(OC)C[C@@H](C)/C(=N\OC/C=C/c2ccc3c(c2)c(=O)c(C(=O)NC)cn3CC)[C@H](C)[C@H]2OC(=O)O[C@@]21C = Criterion met
• CC[C@H]1OC(=O)[C@@](C)(F)C(=O)[C@H](C)[C@@H](O[C@@H]2O[C@H](C)C[C@H](N(C)C)[C@H]2O)[C@](C)(OC/C=C/c2ccc3[nH]cc(C(=O)O)c(=O)c3c2)C[C@@H](C)/C(=N\OC)[C@H](C)[C@H]2OC(=O)O[C@@]21C = Criterion met
• CC[C@H]1OC(=O)[C@@](C)(F)C(=O)[C@H](C)[C@@H](O[C@@H]2O[C@H](C)C[C@H](N(C)C)[C@H]2O)[C@](C)(OC/C=C/c2ccc3c(c2)c(=O)c(C(=O)NC)cn3C2CC2)C[C@@H](C)/C(=N\OC)[C@H](C)[C@H]2OC(=O)O[C@@]21C = Criterion met

---

# Tested on: Streptococcus pyogenes
# method summary: Bactericidal activity against MLS-resistant Streptococcus pyogenes 12-206 expressing constitutive ermA gene pretreated followed by subculture in absence of compound measured after 24 hrs
# Type: functional
Some compounds, each annotated with its measured MBC.
recorded metric: MBC

• CC[C@H]1OC(=O)[C@@](C)(F)C(=O)[C@H](C)[C@@H](O[C@@H]2O[C@H](C)C[C@H](N(C)C)[C@H]2O)[C@](C)(OC)C[C@@H](C)/C(=N\OCC#Cc2ccc3c(c2)c(=O)c(C(=O)NC)cn3CC)[C@H](C)[C@H]2OC(=O)O[C@@]21C = > 1 µg/mL
• CC[C@H]1OC(=O)[C@@](C)(F)C(=O)[C@H](C)[C@@H](O[C@@H]2O[C@H](C)C[C@H](N(C)C)[C@H]2O)[C@](C)(OC/C=C/c2ccc3c(c2)c(=O)c(C(N)=O)cn3CC)C[C@@H](C)/C(=N\OC)[C@H](C)[C@H]2OC(=O)O[C@@]21C = > 0.016 µg/mL

---

Below, each entry is listed with its recorded Selectivity ratio.
# Test system: Staphylococcus aureus
# method summary: Selectivity ratio of MBC to MIC for MLS/methicillin-resistant Staphylococcus aureus PU 32 expressing inducible ermA gene
# Format: functional
recorded metric: Selectivity ratio

• CC[C@H]1OC(=O)[C@@](C)(F)C(=O)[C@H](C)[C@@H](O[C@@H]2O[C@H](C)C[C@H](N(C)C)[C@H]2O)[C@](C)(OC)C[C@@H](C)/C(=N\OC/C=C/c2ccc3c(c2)c(=O)c(C(=O)NC)cn3CC)[C@H](C)[C@H]2OC(=O)O[C@@]21C = >8
• CC[C@H]1OC(=O)[C@H](C)[C@@H](O[C@H]2C[C@@](C)(OC)[C@@H](O)[C@H](C)O2)[C@H](C)[C@@H](O[C@@H]2O[C@H](C)C[C@H](N(C)C)[C@H]2O)[C@](C)(OC)C[C@@H](C)C(=O)[C@H](C)[C@@H](O)[C@]1(C)O = >8
• CC[C@H]1OC(=O)[C@@](C)(F)C(=O)[C@H](C)[C@@H](O[C@@H]2O[C@H](C)C[C@H](N(C)C)[C@H]2O)[C@](C)(OC)C[C@@H](C)/C(=N\OCC#Cc2ccc(N)nc2)[C@H](C)[C@H]2OC(=O)O[C@@]21C = >8
• CC[C@H]1OC(=O)[C@@](C)(F)C(=O)[C@H](C)[C@@H](O[C@@H]2O[C@H](C)C[C@H](N(C)C)[C@H]2O)[C@](C)(OC)C[C@@H](C)/C(=N\OC/C=C/c2cnc3ccccc3c2N)[C@H](C)[C@H]2OC(=O)O[C@@]21C = 8
• CC[C@H]1OC(=O)[C@@](C)(F)C(=O)[C@H](C)[C@@H](O[C@@H]2O[C@H](C)C[C@H](N(C)C)[C@H]2O)[C@](C)(OC)C[C@@H](C)/C(=N\OCC#Cc2ccc3c(c2)c(=O)c(C(N)=O)cn3CC)[C@H](C)[C@H]2OC(=O)O[C@@]21C = 8
• CC[C@H]1OC(=O)[C@@](C)(F)C(=O)[C@H](C)[C@@H](O[C@@H]2O[C@H](C)C[C@H](N(C)C)[C@H]2O)[C@](C)(OC)C[C@@H](C)/C(=N\OC/C=C/c2cncc(C(N)=O)c2)[C@H](C)[C@H]2OC(=O)O[C@@]21C = >8
• CC[C@H]1OC(=O)[C@@](C)(F)C(=O)[C@H](C)[C@@H](O[C@@H]2O[C@H](C)C[C@H](N(C)C)[C@H]2O)[C@](C)(OC/C=C/c2cncc(C(=O)O)c2)C[C@@H](C)/C(=N\OC)[C@H](C)[C@H]2OC(=O)O[C@@]21C = >8
• CC[C@H]1OC(=O)[C@@](C)(F)C(=O)[C@H](C)[C@@H](O[C@@H]2O[C@H](C)C[C@H](N(C)C)[C@H]2O)[C@](C)(OC)C[C@@H](C)/C(=N\OC/C=C/c2ccc3[nH]ccc(=O)c3c2)[C@H](C)[C@H]2OC(=O)O[C@@]21C = >8
• CC[C@H]1OC(=O)[C@@](C)(F)C(=O)[C@H](C)[C@@H](O[C@@H]2O[C@H](C)C[C@H](N(C)C)[C@H]2O)[C@](C)(OC/C=C/c2ccc3c(c2)c(=O)c(C(N)=O)cn3CC)C[C@@H](C)/C(=N\OC)[C@H](C)[C@H]2OC(=O)O[C@@]21C = >8
• CC[C@H]1OC(=O)[C@@](C)(F)C(=O)[C@H](C)[C@@H](O[C@@H]2O[C@H](C)C[C@H](N(C)C)[C@H]2O)[C@](C)(OC/C=C/c2ccc3c(c2)c(=O)c(C(N)=O)cn3C2CC2)C[C@@H](C)/C(=N\OC)[C@H](C)[C@H]2OC(=O)O[C@@]21C = >8
• CC[C@H]1OC(=O)[C@@](C)(F)C(=O)[C@H](C)[C@@H](O[C@@H]2O[C@H](C)C[C@H](N(C)C)[C@H]2O)[C@](C)(OC)C[C@@H](C)/C(=N\OC/C=C/c2cncc(O)c2)[C@H](C)[C@H]2OC(=O)O[C@@]21C = >8
• CC[C@H]1OC(=O)[C@H](C)[C@@H](O[C@H]2C[C@@](C)(OC)[C@@H](O)[C@H](C)O2)[C@H](C)[C@@H](O[C@@H]2O[C@H](C)C[C@H](N(C)C)[C@H]2O)[C@](C)(O)C[C@@H](C)CN(C)[C@H](C)[C@@H](O)[C@]1(C)O = 1
• CC[C@H]1OC(=O)[C@@](C)(F)C(=O)[C@H](C)[C@@H](O[C@@H]2O[C@H](C)C[C@H](N(C)C)[C@H]2O)[C@](C)(OC)C[C@@H](C)/C(=N\OC/C=C/c2ccc3c(c2)c(=O)c(C(N)=O)cn3CC)[C@H](C)[C@H]2OC(=O)O[C@@]21C = >8
• CC[C@H]1OC(=O)[C@@](C)(F)C(=O)[C@H](C)[C@@H](O[C@@H]2O[C@H](C)C[C@H](N(C)C)[C@H]2O)[C@](C)(OC)C[C@@H](C)/C(=N\OCC#Cc2cnc(N)c3ccccc23)[C@H](C)[C@H]2OC(=O)O[C@@]21C = 4
• CC[C@H]1OC(=O)[C@@](C)(F)C(=O)[C@H](C)[C@@H](O[C@@H]2O[C@H](C)C[C@H](N(C)C)[C@H]2O)[C@](C)(OC)C[C@@H](C)/C(=N\OC/C=C/c2cncc(C(=O)O)c2)[C@H](C)[C@H]2OC(=O)O[C@@]21C = >8
• CC[C@H]1OC(=O)[C@@](C)(F)C(=O)[C@H](C)[C@@H](O[C@@H]2O[C@H](C)C[C@H](N(C)C)[C@H]2O)[C@](C)(OC)C[C@@H](C)/C(=N\OCC#Cc2cncc3ccccc23)[C@H](C)[C@H]2OC(=O)O[C@@]21C = >8
